Measured values drawn from paper PMC11093748 for this set.

- Tested on: TCR5
- method: I-Ag7 SABR-II library screen, enrichment score
- Format: cell-based, mouse
- assay-context: sheet TCR5-PZ44; ES = TCRObserved - TCRPredicted; TCRPredicted = LIBObserved x SLOPE + INTERCEPT; SLOPE 0.90726, INTERCEPT 2.27584e-5
readout-name: Enrichment score
Please reply with the value in numeric form only.

>  <monomer-sequence>
ALVREGLRNVAAGANP

>  <Enrichment score>
-2.1402e-5

$$$$
>  <monomer-sequence>
AAVEEGIVAGGGVTLL

>  <Enrichment score>
2.521e-5

$$$$

Suppose we examine the sequence AKAAVEEGIVAGGGV ; what Enrichment score value has been reported?
4.678e-5

So what's the measured Enrichment score for this one? AGGVAVIKAGAATEV
-1.203e-5

Look up Enrichment score for this sequence: AEKVRNLPAGHGLNAQ
1.968e-5

----------
- System: TCR17A
- method: I-Ag7 SABR-II library screen, enrichment score
- Format: cell-based, mouse
- assay-context: TCR_Mean minus PREDICTED_TCR (from LIB_Mean, SLOPE 0.925966, INTERCEPT 1.81678e-5), PZ52
- Procedure: We then asked whether SABR-IIs could be used to present a library of epitopes for CD4^+ T cell antigen discovery. […] We confirmed that after sequencing, the library accounted for a mean of 708 reads per epitope (Extended Data Fig. 3b). […] Sequence reads were aligned to the I-Ag7 SABR-II backbone and the corresponding epitopes were scored based on their read counts. For each TCR under investigation, an enrichment score (ES) was determined for all the epitopes in a library. […]
Could you please mark t for values of Enrichment score below -0.0001 and f for values at or above it?

>  <monomer-sequence>
ALVREGLRNVAAGANP

>  <tested-on>
TCR17A

>  <label>
f

$$$$
>  <monomer-sequence>
AEKVRNLPAGHGLNAQ

>  <tested-on>
TCR17A

>  <label>
t

$$$$
>  <monomer-sequence>
AKAAVEEGIVAGGGV

>  <tested-on>
TCR17A

>  <label>
f

$$$$
>  <monomer-sequence>
AGGVAVIKAGAATEV

>  <tested-on>
TCR17A

>  <label>
f

$$$$

Confirm or reject: Enrichment score of AAVEEGIVAGGGVTLL lies strictly below -0.0001
t

----------
- System: BDC2.5 TCR
- method: I-Ag7 SABR-II library screen, enrichment score
- Type: cell-based, mouse
- assay-context: I-Ag7 library; EXPT4 of 8
readout-name: Enrichment score
// no unit string in output, number only

Reference set (8 entries):
>  <monomer-sequence>
AGGVAVIKAGAATEV

>  <Enrichment score>
2.834e-5

$$$$
>  <monomer-sequence>
AAVEEGIVAGGGVTLL

>  <Enrichment score>
-0.0001173

$$$$
>  <monomer-sequence>
AVRPLWVRME [top putative hit of BDC2.5 TCR in I-Ag7 library]

>  <Enrichment score>
0.001062

$$$$
>  <monomer-sequence>
SRLGLWVRME [top putative hit of BDC2.5 TCR in I-Ag7 library]

>  <Enrichment score>
0.000616

$$$$
>  <monomer-sequence>
RVRPLWVRME [top putative hit of BDC2.5 TCR in I-Ag7 library]

>  <Enrichment score>
0.000795

$$$$
>  <monomer-sequence>
SRLGAWVRME [top putative hit of BDC2.5 TCR in I-Ag7 library]

>  <Enrichment score>
0.000306

$$$$
>  <monomer-sequence>
SRLGLWVRMA [top putative hit of BDC2.5 TCR in I-Ag7 library]

>  <Enrichment score>
0.000358

$$$$
>  <monomer-sequence>
AEKVRNLPAGHGLNAQ

>  <Enrichment score>
0.0002539

$$$$

Form field: Enrichment score recorded for RLGLWSRMDQLAKELTAE with BDC2.5 TCR (enter value)
0.001435

Give recorded Enrichment score with BDC2.5 TCR for the following sequence: SRLGLWVRMEQLAKELTAE
0.001978
